All figures here come from patent US5185366A.

Assay: Inhibition of cell growth (microscopic cell count)
Type: cell-based, Buffalo green monkey
Conditions: monkey, bgm-70 cells; 48 h, 100.0 μmol/L; read-out: % Reduction of cell growth
value-kind: inhibition at 48 h, 100 µM (%)

# molecule, recorded-measurement
measured = [
    ("O=c1oc2ccc(O)cc2c(O)c1O", 66),
    ("O=c1oc2cc3c(cc2c(O)c1O)OCO3", 71),
    ("O=c1oc2ccccc2c(O)c1O [Compound 5, 3,4-dihydroxy-2H-1-benzopyran-2-one]", 54.1),
]

###

Test: Inhibition of cell growth (microscopic cell count)
Type: cell-based, Buffalo green monkey
Details: monkey, bgm-70 cells; 48 h, 1.6 μmol/L; read-out: % Reduction of cell growth
Here, each record is paired with measured inhibition at 48 h, 1.6 µM data.
value-kind: inhibition at 48 h, 1.6 µM (%)

# compound, recorded-measurement
data = [
    ("CC1(c2ccc(Cl)cc2)OC(=O)C(O)=C1O (racemic)", 67),
    ("O=c1oc2ccc(Cl)cc2c(O)c1O", 30),
    ("O=C1OC2(CCCCC2)C(O)=C1O [Compound 4, 4-spiro-2-hydroxytetronic acid]", 22),
]
